Data provenance is patent US8178506B2.

System: A549 cells
Experiment: Cell cycle assay in A549 cells
Format: cell-based, human
Conditions: A549 cells, 50 nM, 24 hours; relative to the untreated control cells in that phase
Measured metric: % cells in cell cycle phase: aneuploid
// unit must come after the numeric part

Which % cells in cell cycle phase: aneuploid reading was recorded for the substance 338637 (antisense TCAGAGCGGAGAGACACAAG; all 2'-MOE, all phosphorothioate, methylation of C not given here) [compound 338637] ?
120%

And what about the substance 338836 (antisense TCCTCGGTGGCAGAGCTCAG; all 2'-MOE, all phosphorothioate, methylation of C not given here) [compound 338836] ?
111%

And what about the substance 338769 (antisense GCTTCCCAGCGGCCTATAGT; all 2'-MOE, all phosphorothioate, methylation of C not given here) [compound 338769] ?
132%

And what about the substance 340350 (antisense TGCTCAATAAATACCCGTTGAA; all 2'-MOE, all phosphorothioate, methylation of C not given here) [compound 340350] ?
80%
